# Tested on: Chordin-like protein 2 (CHRDL2)
# experiment_notes: compounds binding chordin-like 2 – biochemical, small-molecule microarray, 635 nm fluorescence, primary screen (AID 1126);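 note: printed compound slides probed with Chrdl2 protein at 4 µg/mL for 1 h at 4 C; score merges 667 nm emission intensity with signal to noise over three replicate slides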
# run_parameters: fluorescence 635 nm, higher = more signal
// thresholds for composite z-score classes: LOW: < -0.7; MEDIUM: ≥ -0.7 and < 0.02; HIGH: ≥ 0.02

Some solved cases for reference:
compound | system | discrete_label
CN1C(=O)C2C=CC(C(O)c3ccc(Br)cc3)N(Nc3ccccc3)C2C1=O (stereo unspecified) | Chordin-like protein 2 (CHRDL2) | LOW
CN(C)CCCC[C@@H]1NC(=O)[C@@H]2C[C@H](C(=O)NCCCCCCN)[C@H](c3ccc(O)cc3)N2C1=O | Chordin-like protein 2 (CHRDL2) | HIGH
CC(C)(C)OC(=O)CC[C@@]1(C(=O)NCC(O)CO)N=C(c2ccc(OCCCO)cc2)O[C@@H]1c1ccccc1 (stereo partly specified) | Chordin-like protein 2 (CHRDL2) | LOW
CC1CC/C=C\[C@H]2OC34C=CCN(Cn5nnc6ccccc65)C(=O)[C@H]3N(CCCO)C(=O)[C@@H]4C2C(=O)O1 (stereo partly specified) | Chordin-like protein 2 (CHRDL2) | LOW
CS(=O)(=O)CCOC(=O)C1=CC(c2ccc(CO)cc2)=CC(c2cccs2)N(Cc2cccc(OC(F)(F)F)c2)C=C1C(=O)OCCS(C)(=O)=O (stereo unspecified) | Chordin-like protein 2 (CHRDL2) | HIGH
[N-]=[N+]=NCc1ccccc1C[C@]1(C(N)=O)N=C(c2ccc(OCCCO)cc2)O[C@H]1c1ccccc1N=[N+]=[N-] | Chordin-like protein 2 (CHRDL2) | MEDIUM

**Q:** Looking at O=C1C[C@@](C(=O)O)(c2ccc([N+](=O)[O-])cc2)[C@@H](c2ccc(CO)cc2I)N1C1CCCCC1 , which class would you pick?
**A:** MEDIUM

**Q:** Okay, and O=C(NCCN1CCOCC1)[C@@H]1c2ccccc2C(=O)N(Cc2cc(F)cc(C(F)(F)F)c2)[C@H]1c1ccc(CO)cc1 ?
**A:** LOW

###

z-score values for the compounds below.
# experiment_notes: forskolin-driven CRE-LacZ activity in PC12 – cell-based, CRE-LacZ reporter, forskolin-stimulated, primary screen (AID 1146);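 note: PC12 cells with 6xCRE LacZ reporter stimulated by forskolin 10 µM; beta-galactosidase reporter signal reflecting CREB driven transcription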
# run_parameters: luminescence, 4.5 h, higher = more signal, called active from +8 up or from −8 down
Activity calls are given as the source filed them.

Worked cases, answers included:
entry_smiles | recorded_value
CC(=O)NCCCC[C@@H]1NC(=O)[C@@H]2C[C@H](C(=O)NCCCCCC[N+](C)(C)C)[C@H](c3cccc(OCCO)c3)N2C1=O | -0.75 (inactive)
C=CCN1Cc2ccccc2C[C@]2(N=C(c3ccc(OCCCO)cc3)O[C@@H]2c2ccccc2)C1=O | -1.28 (inactive)
[N-]=[N+]=NCc1ccccc1C[C@]1(C(=O)N2CCOCC2)N=C(c2ccc(OCCCO)cc2)O[C@H]1c1ccccc1 | -1.5 (inactive)

Below: the item to evaluate.
**Q:** Could you share which z-score value was measured for Cc1ccc(S[C@]2(C(=O)NCC(C)C)CC(=O)N(Cc3ccccc3)[C@@H]2c2ccc(CO)cc2)cc1 ?
**A:** 0.98 (inactive)

###

# Tested on: glycogen synthase kinase-3 (GSK3A per assay name; protocol says GSK3B)
# experiment_notes: compounds binding glycogen synthase kinase-3 – biochemical, small-molecule microarray, 635 nm fluorescence, GSK3A, primary screen (AID 1103); note: the record names both GSK3A and GSK3B
# run_parameters: fluorescence 635 nm, higher = more signal
observation_type: composite z-score
Give a plain numeric answer without units written out.

molecule | recorded_value
O=c1cccc(-c2cccc3ccccc23)o1 | -0.274
COCCCNC(=O)[C@]1(Cc2ccccc2N=[N+]=[N-])N=C(c2ccc(OCCCO)cc2)O[C@@H]1c1ccccc1CN=[N+]=[N-] | 0.644
CC[C@@H]1C=C(C(=O)O)[C@H](c2ccc(C(C)C)cc2)N1S(=O)(=O)c1ccc(C)cc1 | 1.15
CCCNC(=O)[C@@]1(c2ccc([N+](=O)[O-])cc2)CC(=O)N(CC23CC4CC(CC(C4)C2)C3)[C@@H]1c1ccc(CO)cc1I | 0.588
Cc1c(NC(=O)/C(C#N)=C/C=C/c2ccccc2)c(=O)n(-c2ccccc2)n1C | 0.234

**Q:** For the molecule CC(=O)n1cc(C(O)C2C=CC3C(=O)N(c4ccccc4)C(=O)C3N2Nc2ccc(C#N)cc2)c2ccccc21 (stereo unspecified) , what composite z-score is on record?
**A:** 0.186

**Q:** Also, O=C1OCC=C[C@H]2OC34C=CCN(Cc5ccccc5)C(=O)[C@H]3N(CCCO)C(=O)[C@@H]4[C@@H]12 (stereo partly specified) please.
**A:** 0.301

**Q:** Same question, [N-]=[N+]=NCc1ccccc1C[C@]1(C(=O)N2CCOCC2)N=C(c2ccc(OCCCO)cc2)O[C@H]1c1ccccc1 this time
**A:** 0.551

**Q:** Please answer likewise for CCOC1=C2C(c3ccc(C)cc3)N(S(=O)(=O)c3ccc(C)cc3)CC2n2c(=O)n(-c3ccccc3)c(=O)n2C1 (stereo unspecified)
**A:** 1.29

**Q:** Also, O=C1C[C@@](C(=O)O)(c2ccc([N+](=O)[O-])cc2)[C@@H](c2ccc(CO)cc2I)N1C1CCCCC1 please.
**A:** -0.428

**Q:** Record: O=C1O[C@@H](c2ccccc2)[C@@H](c2ccccc2)N2[C@@H](c3ccccc3OCCO)[C@]3(C(=O)Nc4ccc(C#CC5(O)CCCCCC5)cc43)[C@@H](C(=O)NC[C@H](O)c3ccccc3)[C@H]12
**A:** 0.868

**Q:** Now the same for CCCCCCCCCCC(O)C1C=CC2C(=O)N(c3ccccc3)C(=O)C2N1Nc1ccc([N+](=O)[O-])cc1 (stereo unspecified)
**A:** 1.29

**Q:** What about this molecule? C=CCC(OC(C)=O)[C@@H]1[C@@H](N(Cc2ccc(-c3cccc(C(F)(F)F)c3)o2)C(=O)c2ccc(C)cc2)c2cc(OCCCO)ccc2N1C(=O)c1ccc2ccccc2n1 (stereo partly specified)
**A:** -0.124

**Q:** Please do the same for CC(C)C[C@@H]1NC(=O)[C@@H]2C[C@H](C(=O)NCCCCN(C)C)[C@H](c3ccc(O)cc3)N2C1=O as well.
**A:** -0.439

**Q:** Now this one: O=C(NCC(O)CO)[C@@]1(Cc2ccccc2)COC(c2ccc(OCCCO)cc2)=N1 (stereo partly specified)
**A:** -0.546

**Q:** Repeat for the following molecule: C=CC[C@]1(C(=O)O)N=C(c2ccc(OCCCO)cc2)O[C@H]1c1ccccc1CN=[N+]=[N-]
**A:** -0.341

meta.source: PubChem BioAssay
